Below: a set of entries, each annotated with reported pIC50.
tested on: Trypanosoma brucei rhodesiense; assay: microbe, parasite or virus in culture; conditions: STIB900, 72 h
Description: Antiprotozoal activity against Trypanosoma brucei rhodesiense STIB900 trypomastigotes incubated for 72 hrs by resazurin dye based fluorimetric analysis
Scale: negative log10 of molar concentration, which is what pIC50 denotes.

Study these solved cases before continuing.
[
  {
    "molecule": "CCN(C(=O)CCc1nc2ncccc2[nH]1)c1ccccc1",
    "targetSystem": "Trypanosoma brucei rhodesiense",
    "numericReadout": 4.19
  },
  {
    "molecule": "Cc1nc(C)c(C(=O)N2CCCC(c3cc4ncccc4[nH]3)C2)o1 (configuration not stated)",
    "targetSystem": "Trypanosoma brucei rhodesiense",
    "numericReadout": 4.19
  },
  {
    "molecule": "CCN(CCC(=O)Nc1cccnc1)C(=O)c1ccc(F)cc1",
    "targetSystem": "Trypanosoma brucei rhodesiense",
    "numericReadout": 4.19
  }
]

Enter reported pIC50 observed with Trypanosoma brucei rhodesiense for O=C(c1ccc(F)cc1)N1CCCC(c2cc3nc(C(F)(F)F)ccc3[nH]2)C1 (configuration not stated) 4.54

Report pIC50 for `O=C(CCc1nc2ncc(Cl)cc2[nH]1)Nc1ccccc1` tested on Trypanosoma brucei rhodesiense. 4.19

Request body: readout pIC50, system Trypanosoma brucei rhodesiense, query `O=C(NCCc1nc2ccccc2[nH]1)c1ccccc1` . Return the value. 4.19

* * *

test: in vitro; conditions: mouse, liver microsomes
Description: Metabolic stability in mouse liver microsomes assessed as intrinsic clearance at 0.5 uM incubated for 30 mins by LC-MS/MS analysis
Below is a list of entries, each paired with its recorded microsomal CLint at 0.5 h, 0.5 µM value.

Worked cases, answers included:
[
  {
    "molecule": "O=C(c1ccc(F)cc1)N1CCCC(c2cc3nc(N4CCCC4)ccc3[nH]2)C1 (configuration not stated)",
    "result": "441 to 444 µL/min/mg"
  },
  {
    "molecule": "O=C(NCCc1nc2ncc(Cl)cc2[nH]1)c1ccccc1",
    "result": "< 23 µL/min/mg"
  }
]

Can you look up the measured microsomal CLint at 0.5 h, 0.5 µM of Nc1cc(C2CCCN(C(=O)c3ccccc3)C2)[nH]n1 (configuration not stated) for me? < 23 µL/min/mg

Suppose we examine the molecule O=C(c1cccc(C(F)(F)F)n1)N1CCCC(c2cc3ncccc3[nH]2)C1 (configuration not stated) ; what microsomal CLint at 0.5 h, 0.5 µM value has been reported? 64 to 196 µL/min/mg

* * *

Recorded Papp by entry
test: in vitro; conditions: PAMPA
Description: Effective permeability of compound by PAMPA assay
The answer is to be given in ×10⁻⁶ cm/s; state only the numeric part.

Use these answered entries as a reference point.
[
  {
    "molecule": "O=C(CCc1nc2ncc(Cl)cc2[nH]1)Nc1cccc(F)c1",
    "Papp / ×10⁻⁶ cm/s": 6.13
  },
  {
    "molecule": "O=C(c1cc(C(F)(F)F)no1)N1CCC(c2cc3ncccc3[nH]2)C1 (stereo unspecified)",
    "Papp / ×10⁻⁶ cm/s": 2.86
  },
  {
    "molecule": "N#Cc1cnc2cc(C3CCCN(C(=O)c4cc(C(F)(F)F)no4)C3)[nH]c2c1 (stereo unspecified)",
    "Papp / ×10⁻⁶ cm/s": 5.51
  },
  {
    "molecule": "O=C(c1ccc(F)cc1)N1CC=C(c2cc3ncccc3[nH]2)CC1",
    "Papp / ×10⁻⁶ cm/s": 0.907
  },
  {
    "molecule": "O=C(c1ccccc1)N1CCCC(c2cn3cccnc3n2)C1 (stereo unspecified)",
    "Papp / ×10⁻⁶ cm/s": 2.75
  },
  {
    "molecule": "COc1ccc(C(=O)N2CCCC(c3cc4ncccc4[nH]3)C2)cc1OC (stereo unspecified)",
    "Papp / ×10⁻⁶ cm/s": 1.58
  },
  {
    "molecule": "O=C(CCc1nc2ncccc2[nH]1)Nc1ccccc1",
    "Papp / ×10⁻⁶ cm/s": 2.72
  },
  {
    "molecule": "O=C(c1ccccc1)N1CC=C(c2cc3ccccc3[nH]2)CC1",
    "Papp / ×10⁻⁶ cm/s": 4.86
  },
  {
    "molecule": "O=C(c1cc(C(F)(F)F)n[nH]1)N1CCCC(c2cc3ncccc3[nH]2)C1 (stereo unspecified)",
    "Papp / ×10⁻⁶ cm/s": 0.881
  },
  {
    "molecule": "O=C(c1cc(C(F)(F)F)no1)N1CCOC(c2cc3ncccc3[nH]2)C1 (stereo unspecified)",
    "Papp / ×10⁻⁶ cm/s": 4.3
  }
]

Dear colleague, I am looking for the recorded Papp of the following molecule: CC(C)(C)OC(=O)N1CCCC(c2cn3cccnc3n2)C1 (stereo unspecified) 7.69

Which measured Papp value corresponds to `O=C(c1ccccc1)N1CCC(c2cc3ncccc3[nH]2)CC1` ? 0.94

Quick one: Papp for `CC(C)c1cc(C(=O)N2CC=C(c3cc4ncccc4[nH]3)CC2)on1` ? 1.54

Which Papp reading was recorded for the molecule `O=C(c1ccccc1)N1C=C(c2cc3ncccc3[nH]2)CCC1` ? 2.99

Quick check: Papp of O=C(c1cc(C(F)(F)F)no1)N1CCCC(c2cc3nc(NCc4ccccc4)ccc3[nH]2)C1 (stereo unspecified) ? 0.239

For the molecule `CCN(CCc1nc2ncc(Cl)cc2[nH]1)C(=O)c1ccc(F)cc1` , what Papp is on record? 11.4

Suppose we examine the molecule `CCN(C(=O)CCc1nc2ncccc2[nH]1)c1ccccc1` ; what Papp value has been reported? 9.64

Which Papp reading was recorded for the molecule COc1ccc2[nH]c(C3CCCN(C(=O)c4ccc(F)cc4)C3)cc2n1 (stereo unspecified) ? 14.4

Which Papp is listed for O=C(c1cc(C2CC2)no1)N1CCOC(c2cc3ncccc3[nH]2)C1 (stereo unspecified) ? 3.18

Entry O=C(c1ccccc1)N1CCCC(c2cn3nc(Cl)ccc3n2)C1 (stereo unspecified) has what Papp? 23.6

Which Papp value belongs to `O=C1c2ccccc2CN1CCc1cc2ncccc2[nH]1` ? 0.504

Which Papp reading was recorded for the molecule O=C(c1ccccc1)N1CCCC(c2cc3ncccc3[nH]2)C1 (stereo unspecified) ? 2.88

Looking for the measured Papp of `CN(CCc1cc2ncccc2[nH]1)C(=O)c1ccccc1` , can you help? 2.85

So what's the measured Papp for this one? Cc1nc(C)c(C(=O)N2CCCC(c3cc4ncccc4[nH]3)C2)s1 (stereo unspecified) 2.88

Find the recorded Papp belonging to O=C(c1ccccc1)N1CCCC(c2nc3ncccc3[nH]2)C1 (stereo unspecified) and report it. 2.43
